molecular target: mTOR (Homo sapiens); construct: purchased Invitrogen; experiment: mTOR kinase inhibition assay (radiometric or LanthaScreen TR-FRET); assay type: biochemical; details: read-out: mTORC IC50
Sequence (P42345 1360-2549 limits assumed): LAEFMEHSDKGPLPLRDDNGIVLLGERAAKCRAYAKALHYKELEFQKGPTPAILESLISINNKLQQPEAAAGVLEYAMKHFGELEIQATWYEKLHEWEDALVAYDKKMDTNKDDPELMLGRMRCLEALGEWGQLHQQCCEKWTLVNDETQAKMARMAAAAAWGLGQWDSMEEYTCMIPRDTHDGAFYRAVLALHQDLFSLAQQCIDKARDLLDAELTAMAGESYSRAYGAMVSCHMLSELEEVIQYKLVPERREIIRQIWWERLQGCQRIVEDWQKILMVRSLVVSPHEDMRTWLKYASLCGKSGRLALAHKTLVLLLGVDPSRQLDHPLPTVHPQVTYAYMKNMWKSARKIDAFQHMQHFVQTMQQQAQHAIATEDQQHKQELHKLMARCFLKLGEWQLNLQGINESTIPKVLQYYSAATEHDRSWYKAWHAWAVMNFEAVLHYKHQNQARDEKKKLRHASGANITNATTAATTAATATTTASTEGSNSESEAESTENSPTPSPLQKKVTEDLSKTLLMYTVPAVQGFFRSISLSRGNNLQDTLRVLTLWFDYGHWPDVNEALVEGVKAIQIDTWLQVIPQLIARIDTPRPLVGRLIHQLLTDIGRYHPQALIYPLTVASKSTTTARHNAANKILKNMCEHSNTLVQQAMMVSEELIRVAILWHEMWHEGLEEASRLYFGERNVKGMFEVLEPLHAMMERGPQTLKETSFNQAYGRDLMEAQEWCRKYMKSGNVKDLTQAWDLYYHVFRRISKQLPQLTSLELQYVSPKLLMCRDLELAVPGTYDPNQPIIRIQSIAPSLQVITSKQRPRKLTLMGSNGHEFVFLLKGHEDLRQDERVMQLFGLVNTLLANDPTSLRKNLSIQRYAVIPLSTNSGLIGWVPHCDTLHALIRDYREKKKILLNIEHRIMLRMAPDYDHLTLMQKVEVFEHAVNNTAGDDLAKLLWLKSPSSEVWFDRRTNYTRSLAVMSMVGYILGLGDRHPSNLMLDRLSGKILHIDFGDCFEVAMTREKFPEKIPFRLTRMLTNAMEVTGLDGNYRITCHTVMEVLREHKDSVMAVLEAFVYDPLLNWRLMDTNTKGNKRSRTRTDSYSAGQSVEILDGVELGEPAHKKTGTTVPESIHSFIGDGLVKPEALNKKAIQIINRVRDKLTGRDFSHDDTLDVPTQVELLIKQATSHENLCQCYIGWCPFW
pIC50: −log10 of the molar value.
Experimental endpoint: pIC50

Req: With mTOR (Homo sapiens) as the test system, provide measured pIC50 for this compound: CC(=O)Nc1cn2cc(-c3ccc4oc(N)nc4c3)ccc2n1
Resp: > 6.00

Req: With mTOR (Homo sapiens) as the test system, provide measured pIC50 for this compound: Nc1nc2ccc(-c3ccc4nccc(-c5ccncc5)c4c3)cc2s1
Resp: > 6.00

Req: With mTOR (Homo sapiens) as the test system, provide measured pIC50 for this compound: CC(C)Oc1nc(-c2ccc3oc(N)nc3c2)cnc1N
Resp: > 6.00

Req: With mTOR (Homo sapiens) as the test system, provide measured pIC50 for this compound: Nc1ncc2cc(-c3ccc4nccc(-c5ccncc5)c4c3)ccc2n1
Resp: < 5.00

Req: With mTOR (Homo sapiens) as the test system, provide measured pIC50 for this compound: CCN1CCN(C2CN(c3cnc4ccc(-c5ccc6oc(N)nc6c5)cc4n3)C2)CC1
Resp: < 5.00

Req: With mTOR (Homo sapiens) as the test system, provide measured pIC50 for this compound: CS(=O)(=O)N1CCN(C2CN(c3cnc4ccc(-c5ccc6oc(N)nc6c5)cc4n3)C2)CC1
Resp: < 5.00

Req: With mTOR (Homo sapiens) as the test system, provide measured pIC50 for this compound: Nc1nc2cc(-c3ccc4ncc(N5CC(N6CC[C@@H](O)C6)C5)nc4c3)ccc2o1
Resp: > 6.00

Req: With mTOR (Homo sapiens) as the test system, provide measured pIC50 for this compound: Nc1ncc(-c2ccc3oc(N)nc3c2)cn1
Resp: < 5.00

Req: With mTOR (Homo sapiens) as the test system, provide measured pIC50 for this compound: Nc1nc2ccc(-c3ccc4nccc(-c5ccncc5)c4c3)cc2o1
Resp: > 6.00

Req: With mTOR (Homo sapiens) as the test system, provide measured pIC50 for this compound: CC(C)N1CCN(C2CN(c3cnc4ccc(-c5ccc6oc(N)nc6c5)cc4n3)C2)CC1
Resp: < 5.00

Req: With mTOR (Homo sapiens) as the test system, provide measured pIC50 for this compound: CC(C)N1CCC(n2cnc3ccc(-c4ccc5oc(N)nc5c4)cc3c2=O)CC1
Resp: > 5.00

Req: With mTOR (Homo sapiens) as the test system, provide measured pIC50 for this compound: Nc1nc2cc(-c3nc(N4CCOCC4)c4cnn(C5CCNCC5)c4n3)ccc2o1
Resp: > 6.00

Req: With mTOR (Homo sapiens) as the test system, provide measured pIC50 for this compound: Nc1nc2cc(-c3ccc4ncc(-c5cccnc5)nc4c3)ccc2o1
Resp: > 5.00

---

molecular target: PI3K δ (Homo sapiens, UniProt O00329); construct: purchased Upstate / Millipore Corporation; assay: PI 3-Kinase (human) HTRF assay, PI3K δ; type: biochemical; details: read-out: PI3K δ IC50
Sequence (O00329 whole entry): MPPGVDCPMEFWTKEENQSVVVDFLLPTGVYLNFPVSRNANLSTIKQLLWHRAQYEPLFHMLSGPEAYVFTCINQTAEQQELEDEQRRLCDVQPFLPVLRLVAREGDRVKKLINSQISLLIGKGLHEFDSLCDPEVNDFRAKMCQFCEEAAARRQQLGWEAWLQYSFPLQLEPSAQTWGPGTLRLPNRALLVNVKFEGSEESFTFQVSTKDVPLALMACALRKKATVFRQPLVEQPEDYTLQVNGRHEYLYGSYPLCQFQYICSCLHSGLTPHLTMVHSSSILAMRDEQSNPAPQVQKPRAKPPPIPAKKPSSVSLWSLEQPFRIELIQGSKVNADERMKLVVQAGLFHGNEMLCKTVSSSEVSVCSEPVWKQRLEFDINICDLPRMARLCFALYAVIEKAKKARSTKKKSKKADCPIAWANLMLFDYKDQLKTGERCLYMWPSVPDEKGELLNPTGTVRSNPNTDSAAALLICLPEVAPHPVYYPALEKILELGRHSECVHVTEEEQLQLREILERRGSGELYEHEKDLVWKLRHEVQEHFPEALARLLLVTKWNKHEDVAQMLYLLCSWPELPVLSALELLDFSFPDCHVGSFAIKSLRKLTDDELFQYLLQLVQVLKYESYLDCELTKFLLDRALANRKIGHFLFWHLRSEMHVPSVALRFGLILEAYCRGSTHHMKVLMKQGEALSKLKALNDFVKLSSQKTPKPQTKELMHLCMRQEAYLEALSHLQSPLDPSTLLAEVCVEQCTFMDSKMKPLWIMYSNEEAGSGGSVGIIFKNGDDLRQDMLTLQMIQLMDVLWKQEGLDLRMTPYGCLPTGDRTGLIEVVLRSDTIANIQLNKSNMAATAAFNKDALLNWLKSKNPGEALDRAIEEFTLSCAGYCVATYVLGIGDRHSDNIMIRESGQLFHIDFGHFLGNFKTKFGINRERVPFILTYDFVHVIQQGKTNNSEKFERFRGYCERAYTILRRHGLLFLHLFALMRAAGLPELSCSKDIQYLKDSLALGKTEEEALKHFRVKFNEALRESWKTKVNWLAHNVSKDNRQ
Sequence (P27986 whole entry partner): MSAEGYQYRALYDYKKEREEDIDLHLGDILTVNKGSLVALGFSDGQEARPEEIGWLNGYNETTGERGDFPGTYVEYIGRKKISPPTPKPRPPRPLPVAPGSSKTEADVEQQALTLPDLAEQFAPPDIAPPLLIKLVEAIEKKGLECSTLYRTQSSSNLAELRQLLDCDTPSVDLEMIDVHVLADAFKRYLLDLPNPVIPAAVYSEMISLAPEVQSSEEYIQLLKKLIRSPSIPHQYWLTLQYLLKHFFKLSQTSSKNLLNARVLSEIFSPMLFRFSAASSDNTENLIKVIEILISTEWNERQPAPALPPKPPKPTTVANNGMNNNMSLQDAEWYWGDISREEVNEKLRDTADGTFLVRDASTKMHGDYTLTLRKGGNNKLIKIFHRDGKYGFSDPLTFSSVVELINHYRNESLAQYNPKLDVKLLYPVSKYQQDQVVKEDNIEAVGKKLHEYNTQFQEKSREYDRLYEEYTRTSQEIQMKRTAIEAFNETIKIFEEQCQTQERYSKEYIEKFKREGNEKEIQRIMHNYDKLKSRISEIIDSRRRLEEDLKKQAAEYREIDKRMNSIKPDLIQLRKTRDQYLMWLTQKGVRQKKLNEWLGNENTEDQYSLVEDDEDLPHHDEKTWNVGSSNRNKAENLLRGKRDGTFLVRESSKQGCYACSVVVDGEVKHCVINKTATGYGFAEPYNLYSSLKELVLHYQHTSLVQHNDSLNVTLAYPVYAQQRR
pIC50: −log10 of the molar value.
Experimental endpoint: pIC50

Req: With PI3K δ (Homo sapiens, UniProt O00329) as the test system, provide measured pIC50 for this compound: CN1CCN(c2cnc3ccc(-c4ccc5nc(N)sc5c4)cc3n2)CC1
Resp: < 5.00

Req: With PI3K δ (Homo sapiens, UniProt O00329) as the test system, provide measured pIC50 for this compound: C[C@@H]1CN(C(=O)C2CN(c3cnc4ccc(-c5ccc6oc(N)nc6c5)cc4n3)C2)CCN1
Resp: > 6.00

Req: With PI3K δ (Homo sapiens, UniProt O00329) as the test system, provide measured pIC50 for this compound: CN(CCN1CCOCC1)c1cnc2ccc(-c3ccc4oc(N)nc4c3)cc2n1
Resp: < 5.00

Req: With PI3K δ (Homo sapiens, UniProt O00329) as the test system, provide measured pIC50 for this compound: Nc1nc2cc(-c3ccc4ncc(N5CC(N)C5)nc4c3)ccc2o1
Resp: > 5.00

Req: With PI3K δ (Homo sapiens, UniProt O00329) as the test system, provide measured pIC50 for this compound: Nc1nc2cc(-c3ccc4ncc(C(=O)N5CCC(N6CC(F)(F)C6)C5)n4c3)ccc2o1 (stereo not drawn)
Resp: < 5.00

Req: With PI3K δ (Homo sapiens, UniProt O00329) as the test system, provide measured pIC50 for this compound: CC1CN(c2cnc3ccc(-c4ccc5oc(N)nc5c4)cc3n2)CC(C)N1 (stereo not drawn)
Resp: > 6.00

Req: With PI3K δ (Homo sapiens, UniProt O00329) as the test system, provide measured pIC50 for this compound: O=C(c1cnc2ccc(-c3cnc(Cl)c(NS(=O)(=O)c4ccccc4F)c3)cn12)N1CCOCC1
Resp: > 7.00

Req: With PI3K δ (Homo sapiens, UniProt O00329) as the test system, provide measured pIC50 for this compound: Cn1cc(-c2ccnc3ccc(-c4ccc5oc(N)nc5c4)cc23)cn1
Resp: > 7.00

Req: With PI3K δ (Homo sapiens, UniProt O00329) as the test system, provide measured pIC50 for this compound: Nc1nc2cc(-c3ccc4ncc(N5CCCCC5)nc4c3)ccc2o1
Resp: < 5.00

Req: With PI3K δ (Homo sapiens, UniProt O00329) as the test system, provide measured pIC50 for this compound: O=C(c1cnc2ccc(-c3cnc(Cl)c4[nH]ncc34)cn12)N1CCOCC1
Resp: < 5.00

Req: With PI3K δ (Homo sapiens, UniProt O00329) as the test system, provide measured pIC50 for this compound: Nc1nc2cc(-c3ccc4ncnc(N5CCC(O)CC5)c4c3)ccc2o1
Resp: > 7.00

Req: With PI3K δ (Homo sapiens, UniProt O00329) as the test system, provide measured pIC50 for this compound: Nc1nc2cc(-c3ccc4ncnc(OC5CCOCC5)c4c3)ccc2o1
Resp: > 6.00

Req: With PI3K δ (Homo sapiens, UniProt O00329) as the test system, provide measured pIC50 for this compound: CC(C)N1CCC(n2cnc3ccc(-c4cncc(NS(C)(=O)=O)c4)cc3c2=O)CC1
Resp: < 5.00

Req: With PI3K δ (Homo sapiens, UniProt O00329) as the test system, provide measured pIC50 for this compound: Cc1c(-c2ccc3oc(N)nc3c2)ccc2ncc(N3CC(N4CCOCC4)C3)nc12
Resp: < 5.00

Req: With PI3K δ (Homo sapiens, UniProt O00329) as the test system, provide measured pIC50 for this compound: CS(=O)(=O)Nc1cc(-c2ccc3ncc(C(=O)N4CCOCC4)n3c2)ccc1Cl
Resp: < 5.00

Req: With PI3K δ (Homo sapiens, UniProt O00329) as the test system, provide measured pIC50 for this compound: CCNC(=O)c1cnc2ccc(-c3ccc4oc(N)nc4c3)cn12
Resp: > 6.00

Req: With PI3K δ (Homo sapiens, UniProt O00329) as the test system, provide measured pIC50 for this compound: Nc1nc2cc(-c3ccc4sc(N)nc4c3)ccc2o1
Resp: > 5.00

Req: With PI3K δ (Homo sapiens, UniProt O00329) as the test system, provide measured pIC50 for this compound: O=C(c1cnc2ccc(-c3ccc4c(Nc5ccccc5)nsc4c3)cn12)N1CCOCC1
Resp: < 5.00

Req: With PI3K δ (Homo sapiens, UniProt O00329) as the test system, provide measured pIC50 for this compound: Nc1nc2cc(-c3ccc4ncc(N5CCC(O)CC5)nc4c3)ccc2o1
Resp: > 6.00

Req: With PI3K δ (Homo sapiens, UniProt O00329) as the test system, provide measured pIC50 for this compound: Nc1nc2cc(-c3ccc4ncc(N5CCNC(C(F)(F)F)C5)nc4c3)ccc2o1 (stereo not drawn)
Resp: > 5.00

Req: With PI3K δ (Homo sapiens, UniProt O00329) as the test system, provide measured pIC50 for this compound: Cc1cc2oc(N)nc2cc1-c1ccc2ncc(N3CCN[C@@H](C)C3)nc2c1
Resp: < 5.00
